Source: patent US20110190285A1

biological target: botulinum (serotype-A) (Clostridium botulinum); test: cell-based; conditions: read-out: Cell Biology (% inhibition at 30 uM)
value kind: inhibition at 30 µM

Would you please look over these solved cases?
1. O=C(CS)Nc1cc(-c2ccc(F)cc2)n[nH]1 73 to 78%
2. O=C(CS)Nc1ccc2c(c1)Cc1cc(Br)ccc1-2 90%
3. CCOC(=O)Cc1csc(NC(=O)CS)n1 86%
4. Cc1ccc(NC(=O)CS)cc1C#N 77%

Next item in the queue.
// inhibition at 30 µM value for `O=C(CS)Nc1cc(-c2ccc(Cl)cc2)n[nH]1` : 57 to 100%

====

biological target: botulinum (serotype-A) (Clostridium botulinum, UniProt P0DPI1)
Sequence (P0DPI1 2-1296 limits assumed): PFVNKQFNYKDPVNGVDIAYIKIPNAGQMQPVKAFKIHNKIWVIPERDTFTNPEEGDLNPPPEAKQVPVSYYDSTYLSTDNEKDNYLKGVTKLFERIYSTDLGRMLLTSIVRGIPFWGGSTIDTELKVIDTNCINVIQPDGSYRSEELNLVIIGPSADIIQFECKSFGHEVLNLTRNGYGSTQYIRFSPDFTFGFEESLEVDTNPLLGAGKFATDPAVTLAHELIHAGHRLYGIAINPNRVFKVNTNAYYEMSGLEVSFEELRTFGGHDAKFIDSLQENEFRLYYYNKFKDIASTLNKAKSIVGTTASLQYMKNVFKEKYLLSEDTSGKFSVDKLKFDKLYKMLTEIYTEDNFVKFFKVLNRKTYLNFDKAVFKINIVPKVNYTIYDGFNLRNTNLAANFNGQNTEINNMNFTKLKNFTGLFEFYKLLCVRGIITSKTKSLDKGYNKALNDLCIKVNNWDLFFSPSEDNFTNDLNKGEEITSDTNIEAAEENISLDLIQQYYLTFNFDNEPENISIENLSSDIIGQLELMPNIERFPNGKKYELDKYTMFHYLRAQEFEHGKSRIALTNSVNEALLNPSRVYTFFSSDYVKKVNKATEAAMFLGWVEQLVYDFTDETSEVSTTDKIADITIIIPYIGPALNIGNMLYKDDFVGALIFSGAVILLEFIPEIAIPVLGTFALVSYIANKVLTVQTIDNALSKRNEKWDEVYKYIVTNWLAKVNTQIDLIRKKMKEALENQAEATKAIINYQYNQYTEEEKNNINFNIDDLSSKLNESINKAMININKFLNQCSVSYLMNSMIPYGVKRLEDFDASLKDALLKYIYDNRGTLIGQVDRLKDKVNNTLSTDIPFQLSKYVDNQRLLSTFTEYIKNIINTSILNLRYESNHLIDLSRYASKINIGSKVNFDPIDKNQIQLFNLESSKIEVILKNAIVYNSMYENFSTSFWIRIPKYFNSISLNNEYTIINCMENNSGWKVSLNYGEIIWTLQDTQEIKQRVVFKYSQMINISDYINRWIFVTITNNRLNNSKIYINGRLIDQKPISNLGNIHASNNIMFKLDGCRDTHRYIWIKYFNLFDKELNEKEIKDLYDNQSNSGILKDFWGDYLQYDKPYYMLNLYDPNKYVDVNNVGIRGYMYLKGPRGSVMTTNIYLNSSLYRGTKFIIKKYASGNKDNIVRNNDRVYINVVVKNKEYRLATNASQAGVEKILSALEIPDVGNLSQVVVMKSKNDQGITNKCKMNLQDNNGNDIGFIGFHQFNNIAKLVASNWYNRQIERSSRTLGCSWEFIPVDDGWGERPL
value kind: pIC50
Keep it numeric: pIC50 is minus log10 of the concentration in mol/L.

// pIC50 value for CC(NC(=O)CS)c1ccc(Cl)cc1Cl (centres unmarked) [drawing 69] : 4.74
